# tested_system: T1, TREM2 (Homo sapiens, UniProt Q9NZC2)
# T1 construct: expressed in transfected cells
# T1 sequence (Q9NZC2 19-230): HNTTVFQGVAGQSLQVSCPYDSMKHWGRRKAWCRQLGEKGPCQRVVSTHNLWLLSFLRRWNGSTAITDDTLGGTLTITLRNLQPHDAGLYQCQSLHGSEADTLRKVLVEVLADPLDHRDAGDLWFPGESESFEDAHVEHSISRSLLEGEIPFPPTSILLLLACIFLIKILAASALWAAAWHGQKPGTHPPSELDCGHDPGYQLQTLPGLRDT
# T1 sequence (O43914 22-113 partner): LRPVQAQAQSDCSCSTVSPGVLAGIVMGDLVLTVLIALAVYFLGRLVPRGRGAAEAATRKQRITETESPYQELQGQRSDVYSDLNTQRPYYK
# measurement_protocol: FACS binning on human TREM2-HEK cells (competition with R&D antibody)
# Type: binding
# test_context: epitope bin, 100 nM antibody
endpoint_label: Bin by FACS

INSERT INTO assay_data (molecule, endpoint_label, test_value) VALUES
  ('26D2.D1: anti-TREM2 antibody clone; VH SEQ ID NO:16, VL SEQ ID NO:27 (antibody, V domains shown) VH: EVQLQQSGPELVKPGASVKMSCKASGYTFTSYVMHWVKQKPGQGLEWIGYINPYTDGTKYNEKFKGKATLTSDKSSSTAYMDLSSLTSEDSAVYYCARGEVRRYALDYWGQGTSVTVSS VL: DIQMTQSSSSFSVSLGDRVTITCKASEDIYNRLAWYQQKPGNAPRLLISGATSLETGVPSRFSGSGSGKDYTLSITSLQTEDVATYYCQQYWSTPWTFGGGTKLEIK', 'Bin by FACS', 3),
  ('54C2.A1: anti-TREM2 antibody clone; VH SEQ ID NO:22, VL SEQ ID NO:33 (antibody, V domains shown) VH: QVHLQQSGSELRSPGSSVKLSCKDFDSEVFPIAYMSWVRQKPGHGFEWIGDILPSIGRRIYGVKFEDKATLDADTVSNTAYLELNSLTSEDSAIYYCTRKDYGSLAYWGQGTLVTVSA VL: DVVMTQTPLSLPVSLGDQASISCRSSQSLVHINGNTYLQWYLQKPGQSPKLLIYKVSNRFSGVPDRFSGSGSGTDFTLRISRVEAEDLGVYFCSQSTHLPYTFGGGTKLEIK', 'Bin by FACS', 1),
  ('24B4.A1: anti-TREM2 antibody clone; VH SEQ ID NO:17, VL SEQ ID NO:28 (antibody, V domains shown) VH: QVHLQQSGSELRSPGSSVKLSCKDFDSEVFPISYMSWIRQKPGHGFEWIGDILPSIGGRIYGVKFEDRATLDADTVSNTAYLELNSLTSEDSAIYYCARKDYGSLAYWGQGTLVTVSA VL: DVVMTQTPLSLPVSLGDQASISCRSSQSLVHINGNTYLQWFLQKPGQSPKLLIYKVSNRFSGVPDRFSGSGSGTAFTLKISRVEAEDLGVYFCSQSTHVPYTFGGGTKLEIK', 'Bin by FACS', 1),
  ('49H11.B1: anti-TREM2 antibody clone; VH SEQ ID NO:21, VL SEQ ID NO:32 (antibody, V domains shown) VH: DVQLQESGPGLVKPSQSLSLTCTVTGYSITSDYAWNWIRQFPGNRLEWMGYISFSGSTSYNPSLKSRISITRDTSKNQFFLQLNSVTTEDTATYYCARWNGNYGFAYWGQGTLVTVSA VL: DVVMTQTPLSLPVSLGDQASISCRSSQSLVHINGNTYLHWYLQKPGQSPKLLIYKVSNRFSGVPDRFSGSGSGTDFTLKISRVEAEDLGVYFCSQSTHVTFTFGSGTKLEIK', 'Bin by FACS', 1);

Provenance of the data: patent US20200277373A1
